Reference source: patent US20230286919A1

Values of pIC50 reported for JAK2 (Homo sapiens, UniProt O60674) appear below.
pIC50: −log10 of the molar value.

C[C@@H]1CCC(c2cc3c4c(cncc4c2)[C@@H](C)C3)=C1C=O [323-2, (15S,2R)-Delavatine A]: < 4.70

Now look at this entry.
Summary for this molecule, C[C@@H]1CCC(c2cc3c4c(cncc4c2)[C@H](C)C3)=C1C=O [323-1, (15R,2R)-Delavatine A] : pIC50 is < 4.70

* * *

target: PDGFRB (PDGFR beta) (Homo sapiens)
Sequence (P09619 33-1106): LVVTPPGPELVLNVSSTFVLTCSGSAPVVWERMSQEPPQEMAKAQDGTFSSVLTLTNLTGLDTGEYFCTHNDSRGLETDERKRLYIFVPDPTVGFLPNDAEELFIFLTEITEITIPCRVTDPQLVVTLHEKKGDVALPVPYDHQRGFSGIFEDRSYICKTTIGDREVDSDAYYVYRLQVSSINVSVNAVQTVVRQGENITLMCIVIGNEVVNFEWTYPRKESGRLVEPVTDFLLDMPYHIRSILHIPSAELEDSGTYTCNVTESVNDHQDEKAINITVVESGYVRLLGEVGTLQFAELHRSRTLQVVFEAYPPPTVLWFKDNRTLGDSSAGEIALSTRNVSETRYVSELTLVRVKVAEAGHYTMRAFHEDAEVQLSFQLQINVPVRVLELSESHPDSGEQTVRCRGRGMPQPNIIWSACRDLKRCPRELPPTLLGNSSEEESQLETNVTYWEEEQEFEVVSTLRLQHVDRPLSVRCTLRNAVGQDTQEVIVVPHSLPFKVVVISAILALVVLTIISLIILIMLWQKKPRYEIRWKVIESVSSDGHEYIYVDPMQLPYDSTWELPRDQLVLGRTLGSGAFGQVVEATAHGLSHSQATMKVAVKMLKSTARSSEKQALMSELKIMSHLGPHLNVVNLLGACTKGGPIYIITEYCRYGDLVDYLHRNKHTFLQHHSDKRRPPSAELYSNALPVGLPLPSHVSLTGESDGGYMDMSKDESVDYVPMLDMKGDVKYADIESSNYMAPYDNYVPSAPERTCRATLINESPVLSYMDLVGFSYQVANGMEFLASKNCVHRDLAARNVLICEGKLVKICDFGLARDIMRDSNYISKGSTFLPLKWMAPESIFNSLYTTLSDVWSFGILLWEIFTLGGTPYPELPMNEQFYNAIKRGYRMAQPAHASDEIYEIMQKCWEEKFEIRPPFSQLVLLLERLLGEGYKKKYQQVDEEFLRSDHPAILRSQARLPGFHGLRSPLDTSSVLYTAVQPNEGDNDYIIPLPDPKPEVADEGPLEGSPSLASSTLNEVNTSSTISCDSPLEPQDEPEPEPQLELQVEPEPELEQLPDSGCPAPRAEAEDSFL
Assay Endpoint: IC50

C[C@@H]1CCC(c2cc3c4c(cncc4c2)[C@@H](C)C3)=C1C=O [323-2, (15S,2R)-Delavatine A]: > 20 µM

Summary for this compound, C[C@@H]1CCC(c2cc3c4c(cncc4c2)[C@H](C)C3)=C1C=O [323-1, (15R,2R)-Delavatine A] : IC50 is > 20 µM

* * *

biological target: PDGFRA (PDGFR alpha) (Homo sapiens, UniProt P16234)
Sequence (P16234 24-1089): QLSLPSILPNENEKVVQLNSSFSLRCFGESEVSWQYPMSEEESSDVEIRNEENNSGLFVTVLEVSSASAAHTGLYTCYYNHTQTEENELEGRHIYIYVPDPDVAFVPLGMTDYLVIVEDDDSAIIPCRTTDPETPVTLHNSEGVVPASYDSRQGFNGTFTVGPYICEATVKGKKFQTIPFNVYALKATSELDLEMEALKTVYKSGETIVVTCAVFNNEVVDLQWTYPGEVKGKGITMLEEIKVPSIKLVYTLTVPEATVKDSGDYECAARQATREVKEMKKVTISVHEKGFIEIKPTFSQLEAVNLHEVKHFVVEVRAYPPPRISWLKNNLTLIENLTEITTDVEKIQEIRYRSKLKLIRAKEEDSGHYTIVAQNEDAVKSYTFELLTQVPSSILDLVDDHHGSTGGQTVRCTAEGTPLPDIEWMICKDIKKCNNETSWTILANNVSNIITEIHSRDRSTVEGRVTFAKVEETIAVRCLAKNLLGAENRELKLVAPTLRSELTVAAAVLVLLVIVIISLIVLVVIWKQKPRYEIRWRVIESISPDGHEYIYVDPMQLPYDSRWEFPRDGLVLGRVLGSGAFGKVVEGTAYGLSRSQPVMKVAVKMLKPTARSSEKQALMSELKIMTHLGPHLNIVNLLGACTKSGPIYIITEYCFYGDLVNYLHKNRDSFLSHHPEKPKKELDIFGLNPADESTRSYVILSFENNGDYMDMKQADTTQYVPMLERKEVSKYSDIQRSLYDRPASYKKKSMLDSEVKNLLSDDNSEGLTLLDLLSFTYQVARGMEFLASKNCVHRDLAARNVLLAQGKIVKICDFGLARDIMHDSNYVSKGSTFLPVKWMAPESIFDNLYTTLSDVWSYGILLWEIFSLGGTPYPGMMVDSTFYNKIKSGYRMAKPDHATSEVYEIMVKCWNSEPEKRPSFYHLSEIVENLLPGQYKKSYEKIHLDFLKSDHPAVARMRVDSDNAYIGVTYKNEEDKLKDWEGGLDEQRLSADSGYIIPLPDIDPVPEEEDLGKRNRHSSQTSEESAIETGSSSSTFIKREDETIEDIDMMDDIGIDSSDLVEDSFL
pIC50: −log10 of the molar value.
Assay Endpoint: pIC50

Test item C[C@@H]1CCC(c2cc3c4c(cncc4c2)[C@H](C)C3)=C1C=O [323-1, (15R,2R)-Delavatine A] ; PDGFRA (PDGFR alpha) (Homo sapiens, UniProt P16234); reported pIC50 was < 4.70

Test item C[C@@H]1CCC(c2cc3c4c(cncc4c2)[C@@H](C)C3)=C1C=O [323-2, (15S,2R)-Delavatine A] ; PDGFRA (PDGFR alpha) (Homo sapiens, UniProt P16234); reported pIC50 was < 4.70

* * *

molecular target: Recombinant Human STAT3 protein (SH2 domain) (Homo sapiens); construct: purchased Abcam ab43618; test: Fluorescence Polarization (FP) competition assay, STAT3 / GpYLPQTV-NH2 peptide; assay type: binding; settings: 10 nM peptide, 150 nM human STAT3 (FIG. 20); read-out: Ki, disruption of binding of STAT3 to phosphotyrosine peptide GpYLPQTV
Sequence (P40763 whole entry, the tested form may be a part): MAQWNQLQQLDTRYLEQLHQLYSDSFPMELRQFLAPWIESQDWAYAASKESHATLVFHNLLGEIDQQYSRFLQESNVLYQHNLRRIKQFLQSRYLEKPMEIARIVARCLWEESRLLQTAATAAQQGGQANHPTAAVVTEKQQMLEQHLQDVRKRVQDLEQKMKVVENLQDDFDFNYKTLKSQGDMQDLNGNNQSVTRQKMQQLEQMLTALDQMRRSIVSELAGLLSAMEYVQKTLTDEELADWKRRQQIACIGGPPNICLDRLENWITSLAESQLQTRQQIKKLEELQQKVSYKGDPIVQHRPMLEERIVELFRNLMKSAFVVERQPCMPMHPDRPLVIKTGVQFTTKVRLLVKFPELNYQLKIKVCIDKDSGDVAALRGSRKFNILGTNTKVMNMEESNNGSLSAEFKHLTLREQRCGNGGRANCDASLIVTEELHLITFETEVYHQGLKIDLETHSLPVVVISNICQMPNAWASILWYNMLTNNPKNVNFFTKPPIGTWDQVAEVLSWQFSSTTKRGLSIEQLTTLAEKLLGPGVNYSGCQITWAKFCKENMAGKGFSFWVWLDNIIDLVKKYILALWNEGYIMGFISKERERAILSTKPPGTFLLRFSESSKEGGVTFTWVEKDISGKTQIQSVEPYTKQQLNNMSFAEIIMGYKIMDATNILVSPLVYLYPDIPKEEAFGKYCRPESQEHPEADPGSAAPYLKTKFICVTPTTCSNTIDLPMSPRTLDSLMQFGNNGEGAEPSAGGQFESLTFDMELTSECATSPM
pKi: −log10 of the molar value.
Below is a list of entries, each paired with its recorded pKi value.

C[C@@H]1CCC(c2cc3c4c(cncc4c2)[C@H](C)C3)=C1C=O [323-1, (15R,2R)-Delavatine A]: ~4.03

Now look at this entry.
Test item C[C@@H]1CCC(c2cc3c4c(cncc4c2)[C@@H](C)C3)=C1C=O [323-2, (15S,2R)-Delavatine A] ; Recombinant Human STAT3 protein (SH2 domain) (Homo sapiens); reported pKi was ~4.12

* * *

Values of IC50 reported for AKT1 (PKB alpha) (Homo sapiens) appear below.

C[C@@H]1CCC(c2cc3c4c(cncc4c2)[C@H](C)C3)=C1C=O [323-1, (15R,2R)-Delavatine A]: > 20 µM

Now look at this entry.
Summary for this molecule, C[C@@H]1CCC(c2cc3c4c(cncc4c2)[C@@H](C)C3)=C1C=O [323-2, (15S,2R)-Delavatine A] : IC50 is > 20 µM

* * *

Values of IC50 reported for KDR (VEGFR2) (Homo sapiens, UniProt P35968) appear below.

C[C@@H]1CCC(c2cc3c4c(cncc4c2)[C@H](C)C3)=C1C=O [323-1, (15R,2R)-Delavatine A]: > 20 µM

Now look at this entry.
Test item C[C@@H]1CCC(c2cc3c4c(cncc4c2)[C@@H](C)C3)=C1C=O [323-2, (15S,2R)-Delavatine A] ; KDR (VEGFR2) (Homo sapiens, UniProt P35968); reported IC50 was > 20 µM
